Entry source: PubChem BioAssay (NCI)

test system: DU-145 prostate; test: NCI-60 one-dose screen, 48 h; settings: 10 µM unless noted
Compounds without any hit were thinned out: in the full panel of roughly 83,000, 20% have a hit. The source made the active and inactive calls. Rule for the calls: active = growth percent below 10; inactive = the rest.
Hi there, use one of these labels in your reply, thanks! class 1 = active, class 0 = inactive

Record excerpt, results attached:
C[C@]12CC[C@H]3[C@@H](CC[C@]4(O)C[C@@H](O[C@@H]5O[C@H](CO)[C@@H](O[C@@H]6OC[C@@H](O)[C@H](O)[C@H]6O)[C@H](O)[C@H]5O)CC[C@]34C=O)[C@@]1(O)CC[C@@H]2C1=CC(=O)OC1: class 1
CNCc1cccnc1: class 0
CCCCCCCC(=O)OCC(=O)[C@]1(O)Cc2c(O)c3c(c(O)c2[C@@H](OC2CC(N)C(O)C(C)O2)C1)C(=O)c1c(OC)cccc1C3=O (stereo not given in full): class 1

INPUT: What outcome does the record of this test show for COc1cc2ncnc(Nc3ccc(F)c(Cl)c3)c2cc1OCC(=O)N1CCN(C)CC1 ?
OUTPUT: class 0

INPUT: How was COP(=O)(OC)C(O)c1ccc(Cl)cc1 (stereo not given) classified in this test?
OUTPUT: class 0

###

test system: COLO 205 colon; assay: NCI-60 one-dose screen, 48 h (100 = growth as untreated, 0 = no growth, -100 = all killed); details: 10 µM unless noted
The panel holds about 83,000 compounds, 20% with a hit somewhere; the sample as a whole holds those more often.
parameter-measured: growth (%)
Note: unit % is implicit; provide only the numeric part.

O=NN1CCCc2cccc(O)c21: 94
CCOP(=O)(Nc1ccc2c(c1)/C(=N/NC(N)=S)c1ccccc1-2)OCC: 96.3
COc1cc([N+](=O)[O-])c2nc(C)ccc2c1[N+](=O)[O-]: 77.6

INPUT: Note down growth recorded for COc1cc2c(cc1OCCCCn1c(-c3cccs3)nc3ccccc31)N=C[C@@H]1CCCN1C2=O
OUTPUT: -73.5

INPUT: Return growth (reported value) for this compound: O=C(N/N=C/c1ccc(N(CCCl)CCCl)cc1)c1cccc2ccccc12
OUTPUT: 86.3

INPUT: Fill in reported growth for this entry: CN[C@@]1(c2ccccc2Cl)CCCC[C@@H]1NCC1CCCO1 (stereo partly drawn)
OUTPUT: 109

INPUT: Answer with reported growth of COc1ccc(O)c(CNC(=O)CN2CCCC2=O)c1
OUTPUT: 100

INPUT: Supply measured growth of Cn1cc(C=O)c2nccnc21 in your reply.
OUTPUT: 109

INPUT: # return recorded growth for input Oc1ccc2c3c1OC1[C@@H](O)CC[C@@]4(O)[C@@H](C2)N(CC2CCC2)CC[C@]314 (stereo partly drawn)
OUTPUT: 113

INPUT: Provide growth value for the following compound: CC[C@H](NC(=O)[C@H]1CCCCN1C)C(=O)N(C)[C@H](C[C@@H](OC(C)=O)c1nc(C(=O)N[C@@H](Cc2ccccc2)C[C@H](C)C(=O)O)cs1)C(C)C
OUTPUT: -54.5

###

tested on: LOX IMVI melanoma; assay: NCI-60 one-dose screen, 48 h (100 = growth as untreated, 0 = no growth, -100 = all killed); conditions: 10 µM unless noted
About 83,000 compounds went through this panel and 20% of them were active in at least one assay; those are over-represented in the sample as a whole.
parameter-measured: growth (%)
Value expressed in %; do not type the unit.

CC1=C(CCCOC(=O)CN)C2=C(C)C3(CC3)[C@@](C)(O)C(=O)C2=C1: 88.6

INPUT: Check LOX IMVI melanoma data and give growth for O=C(CCCC1CCCCC1)OCC(Cl)(Cl)Cl .
OUTPUT: 101

INPUT: Report value only: growth, LOX IMVI melanoma, O=C(Nc1ccc(Cl)cc1)Nc1nccs1
OUTPUT: 46.3

INPUT: Recall the reported growth of COc1cc2c(=O)n(C3CCCCCCC3)c3c4cc[nH]c4ncc3c2cc1OC when tested on LOX IMVI melanoma.
OUTPUT: 41.5
